Hello, the source for this data is patent US20100210836A1, in case you need it.

Molecular target: LMPTP-A (Homo sapiens)
Sequence (P24666 1-158): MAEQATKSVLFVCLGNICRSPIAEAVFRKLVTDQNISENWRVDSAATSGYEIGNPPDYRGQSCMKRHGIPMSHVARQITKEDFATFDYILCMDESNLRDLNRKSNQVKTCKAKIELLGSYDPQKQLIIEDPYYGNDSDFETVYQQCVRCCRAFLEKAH
assay_readout: IC50

Q) // IC50 lookup, key: O=C(CSc1nc(C2CC2)nc2sc3c(c12)CCCC3)NCc1ccc2c(c1)OCO2
A) > 90 µM

---

Target: LYP/PTPN22 (Homo sapiens, UniProt Q9Y2R2)
Construct: catalytic domains of LYP (aa 2-309) and PTP-PEST (aa 2-323, PEST); 6xHis (N, cleaved yes); made in house; host or cells: E. coli BL21
Sequence (Q9Y2R2 2-309): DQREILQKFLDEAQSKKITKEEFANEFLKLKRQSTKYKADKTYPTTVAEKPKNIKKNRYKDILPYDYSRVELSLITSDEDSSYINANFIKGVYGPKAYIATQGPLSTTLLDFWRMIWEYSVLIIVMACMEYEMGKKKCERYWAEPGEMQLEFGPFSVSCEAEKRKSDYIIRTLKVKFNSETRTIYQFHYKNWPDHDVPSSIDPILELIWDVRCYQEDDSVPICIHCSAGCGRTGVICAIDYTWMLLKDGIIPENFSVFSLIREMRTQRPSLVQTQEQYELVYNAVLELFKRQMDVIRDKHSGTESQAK
Test: biochemical
Details: LYP IC50
pIC50: recorded values
Quick note: pIC50 values are minus log10 of concentrations in mol/L.

Cc1cc(C)c2[nH]c(=O)c(C(c3nnnn3C3CCCC3)N3CCN(C(c4ccccc4)c4ccccc4)CC3)cc2c1 (stereo not shown)
5.01
Cc1cc(C)c2[nH]c(=O)c(C(c3nnnn3C3CCCC3)N3CCCC4(CCCCC4)C3)cc2c1 (stereo not shown)
4.69
Cc1ccc2cc(C(c3nnnn3C3CCCC3)N3CCN(C(c4ccccc4)c4ccccc4)CC3)c(=O)[nH]c2c1 (stereo not shown)
5.10
Cc1cc(C)c2cc(C(c3nnnn3C3CCCC3)N3CCCC4(CCCCC4)C3)c(=O)[nH]c2c1 (stereo not shown)
4.95
Cc1ccc2cc(C(c3nnnn3C3CCCC3)N3CCCC4(CCCCC4)C3)c(=O)[nH]c2c1C (stereo not shown)
4.92

Q) // pIC50 lookup, key: Cc1ccc2[nH]c(=O)c(C(c3nnnn3C3CCCC3)N3CCN(C(c4ccccc4)c4ccccc4)CC3)cc2c1 (stereo not shown)
A) 5.20

Q) // pIC50 lookup, key: COc1ccc(N2CCN([C@H](c3cc4cc(C)ccc4[nH]c3=O)c3nnnn3C3CCCC3)CC2)cc1
A) 4.50
